// reported furin cleavage Z-score per item
# Assayed system: furin, P09958;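 note: purified furin at 1:10 enzyme:substrate in 50 mM HEPES pH 7.5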
# Sequence (P09958 whole entry): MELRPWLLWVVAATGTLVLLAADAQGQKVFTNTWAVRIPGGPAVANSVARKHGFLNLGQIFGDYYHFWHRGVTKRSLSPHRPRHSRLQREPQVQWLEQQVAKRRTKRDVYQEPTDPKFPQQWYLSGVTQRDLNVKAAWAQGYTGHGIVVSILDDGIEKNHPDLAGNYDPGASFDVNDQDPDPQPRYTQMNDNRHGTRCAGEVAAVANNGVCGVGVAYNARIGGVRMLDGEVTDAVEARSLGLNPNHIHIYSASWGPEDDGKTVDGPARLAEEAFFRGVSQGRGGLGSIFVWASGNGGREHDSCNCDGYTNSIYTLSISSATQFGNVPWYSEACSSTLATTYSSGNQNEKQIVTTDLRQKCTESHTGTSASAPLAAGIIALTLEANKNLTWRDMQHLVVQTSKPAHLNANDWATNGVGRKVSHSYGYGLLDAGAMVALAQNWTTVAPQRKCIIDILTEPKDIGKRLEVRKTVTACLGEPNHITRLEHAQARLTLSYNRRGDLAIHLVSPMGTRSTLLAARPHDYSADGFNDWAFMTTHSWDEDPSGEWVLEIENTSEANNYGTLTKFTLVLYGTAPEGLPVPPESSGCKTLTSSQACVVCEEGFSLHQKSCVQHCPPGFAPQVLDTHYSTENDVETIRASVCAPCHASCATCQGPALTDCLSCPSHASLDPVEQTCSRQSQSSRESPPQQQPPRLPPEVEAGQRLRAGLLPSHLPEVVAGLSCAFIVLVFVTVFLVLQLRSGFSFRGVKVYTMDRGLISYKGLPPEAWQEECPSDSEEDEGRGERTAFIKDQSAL
# Assay notes: furin cleavage Z-score vs untreated control; higher = more cleavage, active = 3.5 or more, inactive = 1 or less, 8 variable residues between constant flanks
# Assay setup: 30 min
Some of the results follow. The true hit rate is not given.
Recorded endpoint: furin cleavage Z-score

- Input sequence: "CAGLPVCQDHAGNASASA [HC934]"
  Result: "-0.789 (inactive)"
- Input sequence: "CARQDRSKGTAGNASASA [FS-2225]"
  Result: "-0.182 (inactive)"
- Input sequence: "CADPMLEKRSAGNASASA [FS-1517]"
  Result: "0.309 (inactive)"
- Input sequence: "CATLDRSKRNAGNASASA [FS-1494]"
  Result: "9.22 (active)"
- Input sequence: "CARFLRHTGRAGNASASA [FS-1701]"
  Result: "0.702 (inactive)"
- Input sequence: "CAEVACHRPSAGNASASA [HC2343]"
  Result: 1.27
- Input sequence: "CAREQRERRRAGNASASA [FS-1155]"
  Result: 2.01
- Input sequence: "CAAMRRLKRRAGNASASA [FS-1304]"
  Result: "8.17 (active)"
- Input sequence: "CAGIQYLAGLAGNASASA [HC1046]"
  Result: "0.333 (inactive)"
- Input sequence: "CATLDREKRSAGNASASA [FS-98]"
  Result: "9.73 (active)"
- Input sequence: "CATTPESGSWAGNASASA [HC53]"
  Result: "-0.54 (inactive)"
- Input sequence: "CATTPCSGQWAGNASASA [HC1922]"
  Result: "-0.665 (inactive)"
- Input sequence: "CAETRRERRRAGNASASA [FS-1121]"
  Result: "4.7 (active)"
- Input sequence: "CAIFLRLKRRAGNASASA [FS-800]"
  Result: 3.43
- Input sequence: "CATFAVEKRGAGNASASA [FS-1289]"
  Result: "0.573 (inactive)"
